The origin of these recorded values is the supplement of paper PMC8728848.

molecular target: Neu5Ac(a2-3)[GalNAc(b1-4)]Gal(b1-4)Glc; assay: glycan array binding signal (z-score within array); higher = stronger binding; conditions: glycan notation: IUPAC condensed, linker removed
This is one part of a sample in which the strongest signals are shown more often than they occur.
Entries and their measured glycan array binding signal (z-score) follow.
READOUT: glycan array binding signal (z-score)

1. Ovorubin (Pomacea canaliculata), J7I2T6 (protein) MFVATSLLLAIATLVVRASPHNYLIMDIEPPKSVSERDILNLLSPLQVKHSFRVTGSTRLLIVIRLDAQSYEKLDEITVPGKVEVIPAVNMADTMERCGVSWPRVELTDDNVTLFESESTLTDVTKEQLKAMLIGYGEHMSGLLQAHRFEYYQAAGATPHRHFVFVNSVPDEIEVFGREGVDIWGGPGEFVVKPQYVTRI	-0.336
2. Threefoil (Haloarcula marismortui) (protein) GSSHHHHHHHHHHSSGLVPRGSHMGDGYYKLVARHSGKALDVENASTSDGANVIQYSYSGGDNQQWRLVDLGDGYYKLVARHSGKALDVENASTSDGANVIQYSYSGGDNQQWRLVDLGDGYYKLVARHSGKALDVENASTSDGANVIQYSYSGGDNQQWRLVDL	-0.269
3. Ficolin A (Rattus norvegicus), Q9WTS8 (protein) MWWPMLWAFPVLLCLCSSQALGQESGACPDVKIVGLGAQDKVAVIQSCPSFPGPPGPKGEPGSPAGRGERGLQGSPGKMGPPGSKGEPGTMGPPGVKGEKGERGTASPLGQKELGDALCRRGPRSCKDLLTRGIFLTGWYTIYLPDCRPLTVLCDMDVDGGGWTVFQRRVDGSINFYRDWDSYKRGFGNLGTEFWLGNDYLHLLTANGNQELRVDLREFQGQTSFAKYSSFQVSGEQEKYKLTLGQFLEGTAGDSLTKHNNMAFSTHDQDNDTNGGKNCAALFHGAWWYHDCHQSNLNGRYLPGSHESYADGINWLSGRGHRYSYKVAEMKIRAS	0.265
